Source: patent US20230286973A1

# Tested on: TNFα-FL/Gaussia Luciferase
# test-protocol: Dox Induced TNFα-FL-Gluc Assay
# Type: cell-based
# particulars: 24 hr Dox induction; 293FRT/TO cells; read-out: 24 hr Dox Inducible TNFaFLGluc 293FRT/TO: Mean IC50
Collected pIC50 values appear next to each entry.
Note on units: pIC50 is unitless, being -log10 of a concentration expressed in mol/L.

Take a look at these entries with their results.
1. O=C(Nc1nc([C@H]2CCCN2c2ccc(C(F)(F)F)cc2)cs1)c1cccn1Cc1ccncc1 [Compound A28]    6.86
2. O=C(Nc1nc([C@H]2CCCN2c2ccc(OC3CCNCC3F)cc2)cs1)c1cccn1Cc1ccnc(F)c1 (stereo partly drawn) [Compound A107]    5.54
3. O=C(Nc1ccc(N2CCC[C@@H]2c2csc(NC(=O)c3cccn3Cc3ccnc(F)c3)n2)cc1)O[C@H]1CCOC1 [Compound A174]    7.09
4. CCOC(=O)Nc1ccc(N2CCC[C@@H]2c2csc(NC(=O)c3cccn3Cc3ccnc(F)c3)n2)cc1 [Compound A145]    8.12
5. O=C(Nc1nc([C@H]2CCCN2c2ccc(O[C@H]3CCOC3)cc2)cs1)c1cccn1Cc1ccncc1 [Compound A4]    6.81

The reported pIC50 of the molecule O=C(Nc1nc([C@@H]2CCCN2c2ccc(C(F)(F)F)cc2)cs1)c1cccn1Cc1ccnc(F)c1 [Compound A142] was 5.16

Documented pIC50 of CC(=O)N1CC(Oc2ccc(N3CCC[C@@H]3c3csc(NC(=O)c4cccn4Cc4ccnc(F)c4)n3)cc2)C1 [Compound A81] : 6.84

Record summary for NS(=O)(=O)N1CC(Oc2ccc(N3CCC[C@@H]3c3csc(NC(=O)c4cccn4Cc4ccnc(F)c4)n3)cc2)C1 [Compound A150] : reported pIC50 = 6.12

Just so you know, measured pIC50 for CC(=O)N1CCC[C@H](Oc2ccc(N3CCC[C@@H]3c3csc(NC(=O)c4cccn4Cc4ccnc(F)c4)n3)cc2)C1 [Compound A84] came out at 6.51

---

# Test system: TNFα-FL/Gaussia Luciferase
# test-protocol: Dox Induced TNFα-FL-Gluc Assay
# Type: cell-based
# particulars: ratio of TNFaFLGluc IC50 to PD1ssGluc IC50
Label key: T means 24 hr Dox Inducible TNFaFLGluc 293FRT/TO: TNF/PD1 under 10; F means 24 hr Dox Inducible TNFaFLGluc 293FRT/TO: TNF/PD1 of 10 or more.

Some entries whose results are on file:
1. CC(=O)N1CCC(Oc2ccc(N3CCC[C@@H]3c3csc(NC(=O)c4cccn4Cc4ccnc(F)c4)n3)c(Cl)c2)CC1    T
2. CNc1ccc(N2CCC[C@@H]2c2csc(NC(=O)c3cccn3Cc3ccncc3)n2)cc1    F
3. Cc1cnccc1Cn1cccc1C(=O)Nc1nc([C@H]2CCCN2c2ccccc2)cs1    F
4. CC(=O)N1CCC(Oc2ccc(N3CCC[C@@H]3c3csc(NC(=O)c4cccn4Cc4ccnc(F)c4)n3)cc2C#N)CC1    T
5. Cc1cccc(/C=C/c2csc(NC(=O)c3cccn3Cc3ccnc(F)c3)n2)n1    F

For "CCc1cccc2nc(/C=C/c3csc(NC(=O)c4cccn4Cc4ccncc4)n3)cn12" , is the recorded 24 hr Dox Inducible TNFaFLGluc 293FRT/TO: TNF/PD1 below the cut-off of 10?
F

A record lists "O=C(Nc1nc([C@H]2CCCN2c2ccc(OC3CN(C(=O)CO)C3)cc2)cs1)c1cccn1Cc1ccnc(F)c1" . Is its 24 hr Dox Inducible TNFaFLGluc 293FRT/TO: TNF/PD1 below 10?
F

Dear reviewer, please state whether "CNC(=O)N1CC(Oc2ccc(N3CCC[C@@H]3c3csc(NC(=O)c4cccn4Cc4ccnc(F)c4)n3)cc2)C1" has 24 hr Dox Inducible TNFaFLGluc 293FRT/TO: TNF/PD1 strictly beneath 10.
F

Please determine if "CC(C)n1ccnc1/C=C/c1csc(NC(=O)c2cccn2Cc2ccnc(F)c2)n1" is below 10 in terms of 24 hr Dox Inducible TNFaFLGluc 293FRT/TO: TNF/PD1.
F

Is it true that 24 hr Dox Inducible TNFaFLGluc 293FRT/TO: TNF/PD1 reported for "O=C(Nc1nc([C@H]2CCCN2c2ccc(O[C@@H]3CCCNC3)cc2)cs1)c1cccn1Cc1ccnc(F)c1" is less than 10?
F

---

Each entry below carries its reported Liver Microsome Stability (Multiple Species): Human - % Remaining after 30 min w/NADPH.
# test-protocol: Liver Microsome Stability Assay (human)
# particulars: human liver microsomes, with NADPH, 1.0 uM compound
Write the value in % as a bare number.

Examples with answers:
1) CNC(=O)c1ccc(N2CCC[C@@H]2c2csc(NC(=O)c3cccn3Cc3ccncc3)n2)cc1    0.32
2) COC(=O)Nc1ccc(N2CCC[C@@H]2c2csc(NC(=O)c3cc(C)cn3Cc3ccnc(F)c3)n2)cc1    65.3
3) O=C(Nc1nc([C@H]2CCCN2c2ccc(O[C@@H]3CCCNC3)cc2)cs1)c1cccn1Cc1ccnc(F)c1    51.1
4) NC(=O)N1CCC(Oc2ccc(N3CCC[C@@H]3c3csc(NC(=O)c4cccn4Cc4ccnc(F)c4)n3)nc2)CC1    10.3
5) CC(=O)NC/C=C/c1csc(NC(=O)c2cccn2Cc2ccncc2)n1    20.8

Entry "O=C(Nc1nc([C@H]2CCCN2)cs1)c1cccn1Cc1ccncc1" ; Liver Microsome Stability (Multiple Species): Human - % Remaining after 30 min w/NADPH = 35.6

Record summary for "NC(=O)CCCCn1cccc1C(=O)Nc1nc([C@H]2CCCN2c2ccccc2)cs1" : reported Liver Microsome Stability (Multiple Species): Human - % Remaining after 30 min w/NADPH = 35.7

Notebook: "CC(C)n1cnc(-c2ccccc2-c2csc(NC(=O)c3cccn3Cc3ccnc(F)c3)n2)c1" , Liver Microsome Stability (Multiple Species): Human - % Remaining after 30 min w/NADPH read as 0.17

CC(C#N)n1cnc(/C=C/c2csc(NC(=O)c3cccn3Cc3ccnc(F)c3)n2)c1 (stereo not shown) yielded Liver Microsome Stability (Multiple Species): Human - % Remaining after 30 min w/NADPH of 0.55

// Liver Microsome Stability (Multiple Species): Human - % Remaining after 30 min w/NADPH value for "CC(=O)N1CCC(Oc2ccc(N3CCC[C@@H]3c3csc(NC(=O)c4cccn4Cc4ccnc(F)c4)n3)cn2)CC1" : 1.07

// Liver Microsome Stability (Multiple Species): Human - % Remaining after 30 min w/NADPH value for "O=C(Nc1nc([C@H]2CCCN2c2ccc(OC3CCSCC3)cc2)cs1)c1cccn1Cc1ccnc(F)c1" : 0.58

Note to self: Liver Microsome Stability (Multiple Species): Human - % Remaining after 30 min w/NADPH recorded for "N#CCCCCn1cccc1C(=O)Nc1nc([C@H]2CCCN2c2ccccc2)cs1" was 29.3

Record "O=C(Nc1nc([C@H]2CCCN2c2ccc(OC3CCN(C(=O)CO)CC3)cc2)cs1)c1cccn1Cc1ccnc(F)c1" . Reported Liver Microsome Stability (Multiple Species): Human - % Remaining after 30 min w/NADPH: 30.1

---

Attribute: Liver Microsome Stability (Multiple Species): Monkey - % Remaining after 30 min w/NADPH
# test-protocol: Liver Microsome Stability Assay (monkey)
# particulars: monkey liver microsomes, with NADPH, 1.0 uM compound
Give the figure together with its unit, number first.

1. CC(C)n1cnc(/C=C/c2csc(NC(=O)c3cccn3Cc3ccncc3)n2)c1    0.13%
2. O=C(Nc1nc([C@H]2CCCN2c2ccc(OC3CSC3)cc2)cs1)c1cccn1Cc1ccnc(F)c1    13.2%
3. C/C(=C\c1ccc(OC(F)(F)F)cn1)c1csc(NC(=O)c2cccn2Cc2ccncc2)n1 [Compound E2]    13.5%

Liver Microsome Stability (Multiple Species): Monkey - % Remaining after 30 min w/NADPH for "O=C(Nc1nc([C@H]2CCCN2c2ccccc2)cs1)c1cccn1CCC1COC1" is 0.26%

---

Recorded 24 hr Dox Inducible TNFaFLGluc 293FRT/TO: TNF/PD1, one value per entry.
# Tested on: TNFα-FL/Gaussia Luciferase
# test-protocol: Dox Induced TNFα-FL-Gluc Assay
# Type: cell-based
# particulars: ratio of TNFaFLGluc IC50 to PD1ssGluc IC50
Keep the answer to the number alone.

Please review the following examples before continuing.
1) CC(C)n1ccc(/C=C/c2csc(NC(=O)c3cccn3Cc3ccncc3)n2)n1    23
2) CN(C)C(=O)Nc1ccc(N2CCC[C@@H]2c2csc(NC(=O)c3cccn3Cc3ccnc(F)c3)n2)cc1    15.6
3) O=C(Nc1ccc(N2CCC[C@@H]2c2csc(NC(=O)c3cccn3Cc3ccnc(F)c3)n2)cc1)O[C@@H]1CCOC1    20.1
4) NC(=O)N1CCC(Oc2ccc(N3CCC[C@@H]3c3csc(NC(=O)c4cccn4Cc4ccnc(F)c4)n3)cn2)CC1    28.3
5) CC(=O)Nc1ccc(N2CCC[C@@H]2c2csc(NC(=O)c3cccn3Cc3ccnc(F)c3)n2)c(F)c1    22.2
6) NCCOc1ccc(N2CCC[C@@H]2c2csc(NC(=O)c3cccn3Cc3ccnc(F)c3)n2)cc1    7.92
7) CN(C)C(=O)N1CCC(Oc2ccc(N3CCC[C@@H]3c3csc(NC(=O)c4cccn4Cc4ccnc(F)c4)n3)cc2)CC1    17.6
8) CC(=O)NCCOc1ccc(N2CCC[C@@H]2c2csc(NC(=O)c3cccn3Cc3ccnc(F)c3)n2)cc1    16.5
9) CC(=O)Nc1c(F)cc(N2CCC[C@@H]2c2csc(NC(=O)c3cccn3Cc3ccnc(F)c3)n2)cc1F    46.7
10) CN(C)S(=O)(=O)N1CC(Oc2ccc(N3CCC[C@@H]3c3csc(NC(=O)c4cccn4Cc4ccnc(F)c4)n3)cc2)C1    12.6

Record summary for "CN1CCC(Oc2ccc(N3CCC[C@@H]3c3csc(NC(=O)c4cccn4Cc4ccncc4)n3)cc2)CC1" : reported 24 hr Dox Inducible TNFaFLGluc 293FRT/TO: TNF/PD1 = 45.5

According to the records, this molecule "Cc1ccc(/C=C/c2csc(NC(=O)c3cccn3Cc3ccncc3)n2)nc1F" displays 24 hr Dox Inducible TNFaFLGluc 293FRT/TO: TNF/PD1 of 184

Looking up "[2H]c1c([2H])c([2H])c(N2CCC[C@@H]2c2csc(NC(=O)c3cccn3Cc3ccnc(F)c3)n2)c([2H])c1[2H]" , I see its 24 hr Dox Inducible TNFaFLGluc 293FRT/TO: TNF/PD1 listed as 19.2

Sample "CC(=O)N[C@@H](C)c1ccc(N2CCC[C@@H]2c2csc(NC(=O)c3cccn3Cc3ccnc(F)c3)n2)cc1" ; 24 hr Dox Inducible TNFaFLGluc 293FRT/TO: TNF/PD1 observed: 6.35

Lab note: "O=C(Nc1nc([C@H]2CCCN2c2ccc(F)cc2)cs1)c1cccn1Cc1ccncc1" gave 24 hr Dox Inducible TNFaFLGluc 293FRT/TO: TNF/PD1 of 24.2
